assay: Apparent permeability across basolateral to apical side in MDCKII-MDR1 cells at 10 uM by LC-MS/MS analysis; type: ADME, cell-based, Canis lupus familiaris; details: dog, MDCK-MDR1
recordedEndpoint: Papp B→A at 10 µM (×10⁻⁶ cm/s)
Answers are plain numbers, in ×10⁻⁶ cm/s.

Example results:
| molecule | unitAbbreviation | Papp B→A at 10 µM |
| --- | --- | --- |
| COc1cc(/C=C/C(=O)c2ccc(O)c(O)c2)c(OC)cc1/C=C/C(=O)c1ccc(O)c(O)c1 | ×10⁻⁶ cm/s | 96 |
| O=C(/C=C/c1ccc(/C=C/C(=O)c2ccc(O)c(F)c2)cc1)c1ccc(O)c(F)c1 | ×10⁻⁶ cm/s | 95.6 |
| O=C(/C=C/c1ccc(/C=C/C(=O)c2ccc(O)c(O)c2)cc1)c1ccc(O)c(O)c1 | ×10⁻⁶ cm/s | 74.7 |
| CC(C)NCC(O)COc1cccc2ccccc12 (stereo not given) | ×10⁻⁶ cm/s | 97 |

Check the records and state Papp B→A at 10 µM for COc1cc(/C=C/C(=O)c2cc(O)cc(O)c2)c(OC)cc1/C=C/C(=O)c1cc(O)cc(O)c1 93.2

====

biological target: Alpha-synuclein (Homo sapiens, UniProt P37840); experiment: Inhibition of recombinant human Alpha-synuclein aggregation expressed in Escherichia coli incubated for 72 hrs by ThT fluorescence assay
recordedEndpoint: pIC50
One number for each entry, as −log10 of the molar value.

Respond only with pIC50 recorded for O=C(O[C@@H]1Cc2c(O)cc(O)cc2O[C@H]1c1cc(O)c(O)c(O)c1)c1cc(O)c(O)c(O)c1 [GALLOCATECHIN GALLATE] 5.97

====

assay: Apparent permeability across apical to basolateral side in MDCKII-MDR1 cells at 10 uM by LC-MS/MS analysis; format: ADME, cell-based, Canis lupus familiaris; conditions: dog, MDCK-MDR1
recordedEndpoint: Papp A→B at 10 µM (×10⁻⁶ cm/s)
Numbers only, in ×10⁻⁶ cm/s.

Field: example entries. Status: answers known.
| molecule | quantitativeReadout |
| --- | --- |
| O=C(/C=C/c1ccc(/C=C/C(=O)c2ccc(O)c(F)c2)cc1)c1ccc(O)c(F)c1 | 11.4 |
| CC(C)NCC(O)COc1cccc2ccccc12 (stereo not given) | 36.5 |

Dear colleague, could you send me Papp A→B at 10 µM for each of the items below? Thanks.
1. COc1cc(/C=C/C(=O)c2cc(O)cc(O)c2)c(OC)cc1/C=C/C(=O)c1cc(O)cc(O)c1
2. O=C(/C=C/c1ccc(/C=C/C(=O)c2ccc(O)c(O)c2)cc1)c1ccc(O)c(O)c1

1. 7.71
2. 16.2

Consider the molecule COc1cc(/C=C/C(=O)c2ccc(O)c(O)c2)c(OC)cc1/C=C/C(=O)c1ccc(O)c(O)c1 and give its recorded Papp A→B at 10 µM. 13.5
